biological target: Perilipin-5 (Homo sapiens) + 1-acylglycerol-3-phosphate O-acyltransferase ABHD5 (Homo sapiens) (UniProt Q00G26+Q8WTS1); assay: blockers of ABHD5 binding to perilipin-5 – biochemical, luminescence, late-stage follow-up (AID 651761); conditions: biochemical ABHD5-PLIN5 interaction
Sequence (Q00G26 whole entry, looked up): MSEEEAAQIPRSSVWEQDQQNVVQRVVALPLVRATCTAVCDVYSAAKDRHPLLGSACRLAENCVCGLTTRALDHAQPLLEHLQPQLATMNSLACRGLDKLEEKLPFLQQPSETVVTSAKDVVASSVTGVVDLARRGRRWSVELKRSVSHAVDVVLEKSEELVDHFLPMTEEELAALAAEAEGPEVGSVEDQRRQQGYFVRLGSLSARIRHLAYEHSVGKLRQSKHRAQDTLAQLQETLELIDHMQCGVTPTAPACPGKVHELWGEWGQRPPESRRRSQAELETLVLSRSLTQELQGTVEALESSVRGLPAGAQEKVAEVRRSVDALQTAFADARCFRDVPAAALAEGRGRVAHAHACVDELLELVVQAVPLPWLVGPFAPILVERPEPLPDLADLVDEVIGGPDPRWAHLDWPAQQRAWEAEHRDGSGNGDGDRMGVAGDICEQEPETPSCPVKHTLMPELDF
Sequence (Q8WTS1 whole entry, looked up): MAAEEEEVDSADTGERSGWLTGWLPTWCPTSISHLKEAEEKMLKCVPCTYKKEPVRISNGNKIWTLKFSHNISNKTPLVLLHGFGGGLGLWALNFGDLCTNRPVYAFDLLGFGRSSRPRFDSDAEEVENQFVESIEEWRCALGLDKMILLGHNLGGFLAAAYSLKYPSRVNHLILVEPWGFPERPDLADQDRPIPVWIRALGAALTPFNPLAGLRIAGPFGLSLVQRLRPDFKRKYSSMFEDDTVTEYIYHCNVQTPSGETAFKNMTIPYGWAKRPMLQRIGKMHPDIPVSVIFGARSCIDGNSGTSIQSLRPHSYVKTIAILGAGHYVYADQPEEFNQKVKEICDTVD
Active and inactive are the calls of the source. No rule for the calls is given here.
Parameter call: string, one of active, inactive

Challenge: Hi team, can someone confirm the assay call for `COc1ccc(C)c2sc(N(CCN(C)C)C(=O)/C=C/c3cccs3)nc12` ?
Response given: active

Challenge: Hi team, can someone confirm the assay call for `CCCCNC(=O)Nc1ccc2c(c1)N(C)C(=O)c1ccccc1S2` ?
Response given: active

Challenge: Hi team, can someone confirm the assay call for `CC(=O)Cc1cc(O)c2ccccc2c1OC(=O)c1ccc(Br)cc1` ?
Response given: active

Challenge: Hi team, can someone confirm the assay call for `COc1cc(C)c2sc3ccccc3c(=O)c2c1NCCN(C)C` ?
Response given: inactive

Challenge: Hi team, can someone confirm the assay call for CC(CCc1ccco1)NC(=O)CCc1nnc2ccc(NCc3ccccc3Cl)nn12 (stereo unspecified) ?
Response given: active

Challenge: Hi team, can someone confirm the assay call for CC(=O)Oc1ccc(C23c4ccccc4C2(OC(C)=O)c2cc(OC(C)=O)ccc23)cc1 (stereo unspecified) ?
Response given: inactive

Challenge: Hi team, can someone confirm the assay call for `CCN(CC)CCNC(=O)c1ccc(NC(=O)c2cn(-c3ccccc3)nc2-c2cccs2)cc1` ?
Response given: inactive

Challenge: Hi team, can someone confirm the assay call for `CCN(CC)CCN(CC(=O)Nc1c(C)cc(C)cc1C)C(=O)c1ccccc1` ?
Response given: active

Challenge: Hi team, can someone confirm the assay call for `CC1CCN(S(=O)(=O)c2ccc(NC(=O)Cc3ccccc3)cc2)CC1` ?
Response given: active

Challenge: Hi team, can someone confirm the assay call for CC(=O)Nc1ccc(S(=O)(=O)N2c3ccc(F)cc3CCC2C)cc1 (stereo unspecified) ?
Response given: active

Challenge: Hi team, can someone confirm the assay call for `O=c1[nH]c(C2CCN(S(=O)(=O)c3ccc(F)cc3)CC2)nc2c1nnn2Cc1ccc2c(c1)OCCO2` ?
Response given: inactive

Challenge: Hi team, can someone confirm the assay call for CCN(CC)CCC(C)OC(c1ccccc1)c1ccccc1 (stereo unspecified) ?
Response given: active

Challenge: Hi team, can someone confirm the assay call for `CN(C)CCCN(C(=O)CCc1ccccc1)c1nc2ccc(Br)cc2s1` ?
Response given: active

Challenge: Hi team, can someone confirm the assay call for `CCN(CC)CCOc1ccc(/C(=C(/Cl)c2ccccc2)c2ccccc2)cc1` ?
Response given: active

Challenge: Hi team, can someone confirm the assay call for `CCN(CC)CCOCCOC(=O)C1(c2ccccc2)CCCC1` ?
Response given: active

Challenge: Hi team, can someone confirm the assay call for `CCOC(=O)c1c(NC(C)=O)sc2c1CCC(C=O)=C2Sc1ccccc1` ?
Response given: active

Challenge: Hi team, can someone confirm the assay call for `COCCN(CCOC)c1nc(N)c2c(N)nc3c(c2c1C#N)CC(=O)N3Cc1ccc(Cl)cc1` ?
Response given: inactive

Challenge: Hi team, can someone confirm the assay call for Cc1cc(C)c(NC(=O)C[N+](C)(C)CC(O)COc2cccc3ccccc23)c(C)c1 (stereo unspecified) ?
Response given: active

Challenge: Hi team, can someone confirm the assay call for `O=c1[nH]c(C2CCN(S(=O)(=O)c3ccc(S(=O)(=O)NC4CC4)cc3)CC2)nc2c1nnn2Cc1ccc(F)cc1` ?
Response given: active

Challenge: Hi team, can someone confirm the assay call for `COc1ccc(NC(=S)N(CCCN2CCCC2)Cc2cccn2Cc2ccc(Cl)cc2)cc1Cl` ?
Response given: inactive

Challenge: Hi team, can someone confirm the assay call for `O=C(/C(=C/O)N=Nc1ccc(Cl)cc1)c1ccncc1` ?
Response given: active

* * *

target: Perilipin-5 (Homo sapiens) + 1-acylglycerol-3-phosphate O-acyltransferase ABHD5 (Homo sapiens) (UniProt Q00G26+Q8WTS1); experiment: blockers of ABHD5 binding to perilipin-5 – biochemical, luminescence, late-stage follow-up (AID 651761); settings: biochemical ABHD5-PLIN5 interaction
The source made the active and inactive calls. No rule for the calls is given here.
Parameter call: string, one of TRUE (active), FALSE (inactive)

Challenge: Hi team, can someone confirm the assay call for `CN(C)CCN(Cc1ccco1)c1ccccn1` ?
Response given: FALSE

Challenge: Hi team, can someone confirm the assay call for COc1cc2c(cc1OC)C(C)N(CCc1ccc(Cl)cc1)CC2 (stereo not drawn) ?
Response given: FALSE

Challenge: Hi team, can someone confirm the assay call for `COc1ccccc1-c1cc(C(=O)NC2CCN(C)CC2)c2ccc(Cl)c(C)c2n1` ?
Response given: FALSE

Challenge: Hi team, can someone confirm the assay call for C=C[C@]1(C)C[C@@H](OC(=O)CSCCN(CC)CC)[C@]2(C)C(C)CC[C@]3(CCC(=O)[C@H]32)[C@@H](C)[C@@H]1O (stereo partly drawn) ?
Response given: TRUE

Challenge: Hi team, can someone confirm the assay call for CC1Sc2ccc(S(=O)(=O)N3CCC(C(=O)NCc4ccc(Cl)cc4)CC3)cc2NC1=O (stereo not drawn) ?
Response given: TRUE

Challenge: Hi team, can someone confirm the assay call for `O=C(C[n+]1cccc(CNC(=O)c2ccc(OC(F)F)cc2)c1)Nc1cccc(C(F)(F)F)c1` ?
Response given: FALSE

Challenge: Hi team, can someone confirm the assay call for `CCCCOC(=O)Nc1cc(C(=O)OC)ccc1C(=O)OC` ?
Response given: TRUE

Challenge: Hi team, can someone confirm the assay call for Cc1cc(C)c(NC(=O)CN2CCN3CCCC3C2)c(C)c1 (stereo not drawn) ?
Response given: FALSE

Challenge: Hi team, can someone confirm the assay call for `CCCNC(=O)Nc1ccc2c(c1)N(C)C(=O)c1ccccc1S2` ?
Response given: TRUE

Challenge: Hi team, can someone confirm the assay call for Cc1nc2c(o1)CCc1ccccc1C2N1CCN(C)CC1 (stereo not drawn) ?
Response given: TRUE

Challenge: Hi team, can someone confirm the assay call for `CC(=O)Cc1cc(O)c2ccccc2c1OC(=O)c1ccccc1` ?
Response given: TRUE

Challenge: Hi team, can someone confirm the assay call for `CC(C)c1ccc(N2C=Nc3ccc(C(C)C)cc3C2)cc1` ?
Response given: TRUE

Challenge: Hi team, can someone confirm the assay call for CC1=CC(C)(C)Nc2ccc(OC(=O)C(C)N3C(=O)c4ccccc4C3=O)cc21 (stereo not drawn) ?
Response given: TRUE

Challenge: Hi team, can someone confirm the assay call for `CN1CCC(=C2c3ccccc3CC(=O)c3sccc32)CC1` ?
Response given: FALSE

Challenge: Hi team, can someone confirm the assay call for `FC(F)(F)c1cccc(NC(=S)N(CCCN2CCCC2)Cc2cccn2Cc2ccc(Cl)cc2)c1` ?
Response given: FALSE

Challenge: Hi team, can someone confirm the assay call for `COc1cc(OC)cc(C(=O)NC(=S)N(Cc2ccccc2)C(C)C)c1` ?
Response given: TRUE

Challenge: Hi team, can someone confirm the assay call for `CN(C)CCCN(C(=O)CCc1ccccc1)c1nc2ccc(Cl)cc2s1` ?
Response given: TRUE

Challenge: Hi team, can someone confirm the assay call for Cc1cc(C)c2nc(NNC(=O)c3ccc(S(=O)(=O)N4CCCC(C)C4)cc3)sc2c1 (stereo not drawn) ?
Response given: TRUE

* * *

target: Perilipin-5 (Homo sapiens) + 1-acylglycerol-3-phosphate O-acyltransferase ABHD5 (Homo sapiens) (UniProt Q00G26+Q8WTS1); experiment: blockers of ABHD5 binding to perilipin-5 – biochemical, luminescence, late-stage follow-up (AID 651761); conditions: biochemical ABHD5-PLIN5 interaction
Calls of active or inactive are those of the source. No rule for the calls is given here.
Parameter call: string, one of 1 (yes) for active, 0 (no) for inactive

Challenge: Hi team, can someone confirm the assay call for `CCOC(=O)c1c(NC(=O)/C=C/C(=O)O)sc(C)c1-c1ccc(C(C)(C)C)cc1` ?
Response given: 1 (yes)

Challenge: Hi team, can someone confirm the assay call for CCOc1cc(N)c(Cl)cc1C(=O)NCC1CN(Cc2ccc(F)cc2)CCO1 (stereo not given) ?
Response given: 1 (yes)

Challenge: Hi team, can someone confirm the assay call for CN(C)CCOC1(Cc2ccc(F)cc2)CCC(C(C)(C)C)CC1 (stereo not given) ?
Response given: 0 (no)

Challenge: Hi team, can someone confirm the assay call for `Cc1ccc2nc3cc([N+](=O)[O-])cc([N+](=O)[O-])c3cc2c1` ?
Response given: 1 (yes)

Challenge: Hi team, can someone confirm the assay call for `CC1CCN(S(=O)(=O)c2ccc(NC(=O)Cc3cccs3)cc2)CC1` ?
Response given: 1 (yes)
